FYI, the data here is from PubChem BioAssay (NCI).

- Tested on: U251 CNS
- experimental.protocol: NCI tumour cell line growth inhibition, 48 h
Each entry below carries its recorded TGI.

Below, each entry is followed by its recorded TGI result.
(Q) Recall and state the measured TGI for Nc1ccc2ccc(N3CCNCC3)nc2n1 .
(A) > 100 µM

(Q) Recall and state the measured TGI for O=C1CSC(c2ccc([N+](=O)[O-])cc2)N1c1ccc(-c2ccc(-n3c(-c4ccccc4)nc4ccccc4c3=O)cc2)cc1 (stereo unspecified) .
(A) > 100 µM

(Q) Recall and state the measured TGI for O=C(N/N=C\c1cccc2ccccc12)Nc1cccc2ccccc12 .
(A) 34.9 µM

(Q) Recall and state the measured TGI for CC(C)(C)N/N=C(\C(=O)Nc1nc(=S)[nH][nH]1)C1C(=O)Nc2ccccc2S1=O (stereo unspecified) .
(A) > 100 µM

(Q) Recall and state the measured TGI for CCCCCCCC/C=C1\CCC(CN2CCOCC2)C1=O (stereo unspecified) .
(A) 28 µM

More entries:
(Q) Recall and state the measured TGI for CC(C)C(=O)/C=C/S/C=C/C(=O)C(C)C .
(A) 70.6 µM

(Q) Recall and state the measured TGI for COc1cc2c(cc1OC)C1Cc3ccc(OC)c(OC)c3C[N+]1([O-])CC2 (stereo unspecified) .
(A) > 100 µM

(Q) Recall and state the measured TGI for COC(=O)C1CC(OC(C)=O)C=C2C(=O)CCC21 (stereo unspecified) .
(A) 80.9 µM

(Q) Recall and state the measured TGI for COc1ccc(NC(=O)c2sc3nc(C)c(C(=O)/C=C/c4cccc(OC)c4)cc3c2N)cc1 .
(A) 2.14 µM

(Q) Recall and state the measured TGI for Cc1nc2c(cc1OCc1ccccc1)C(=O)C1=C(C2=O)C2OC(=O)CC2OC1(C)C (stereo unspecified) .
(A) 2.14 µM

(Q) Recall and state the measured TGI for NCCCNOCCCN .
(A) > 100 µM

(Q) Recall and state the measured TGI for CCn1c2c(c3ccccc31)[C@@H](c1ccc(Cl)cc1)CC1C(=O)N(c3ccccc3)C(=O)C21 (stereo partly specified) .
(A) > 100 µM

(Q) Recall and state the measured TGI for Nc1nc2cc(CC[C@H]3C[C@@H](n4ccc5c(N)ncnc54)[C@H](O)[C@@H]3O)ccc2cc1Br .
(A) 29.8 µM

(Q) Recall and state the measured TGI for O=[N+]([O-])c1cc2ccc(N(CCO)CCO)nc2nc1N(CCO)CCO .
(A) > 100 µM

(Q) Recall and state the measured TGI for Cc1[nH]c(N)nc(=S)c1CCC(=O)O .
(A) > 100 µM

(Q) Recall and state the measured TGI for COC(=O)C(Cc1c[nH]c2ccccc12)NP(=O)(O)OCC1OC(n2cc(Br)c(=O)[nH]c2=O)CC1O (stereo unspecified) .
(A) > 100 µM

(Q) Recall and state the measured TGI for CCCCc1ccc(Nc2nc(Cl)c3ccn(C4CC(Oc5ccc(C)cc5)C(COc5ccc(C)cc5)O4)c3n2)cc1 (stereo unspecified) .
(A) > 46.4 µM

(Q) Recall and state the measured TGI for O=C(C#Cc1ccccc1)C1=Cc2ccccc2OC1 .
(A) > 100 µM

(Q) Recall and state the measured TGI for CCOC(=O)C1=C(C)N(NC(N)=O)C2(N)N(NC(N)=O)C(C)=C(C(=O)OCC)C12C(=O)OCC (stereo unspecified) .
(A) > 100 µM

(Q) Recall and state the measured TGI for COC(=O)c1c(C)cccc1C1CN=NC12Cc1cc(C)cc(C)c1C2=O (stereo unspecified) .
(A) > 100 µM

(Q) Recall and state the measured TGI for Cn1nc(C(F)(F)F)c(-c2cc(C(F)(F)F)cc(C(F)(F)F)c2)c1-c1ccc(OCc2ccc(Cl)cc2)cc1O .
(A) 12.1 µM

(Q) Recall and state the measured TGI for C[C@]12CC[C@H]3[C@@H](CC4SC(N)=NC45C/C(=N/NC(N)=O)CC[C@]35C)[C@@H]1CCC2=O (stereo partly specified) .
(A) 3.22 µM

(Q) Recall and state the measured TGI for C[C@H]1CNC(=O)c2cnn3ccc(nc23)N[C@H](C)c2cc(F)ccc2O1 .
(A) > 100 µM

(Q) Recall and state the measured TGI for COc1cc(OC)c(OC)cc1/C=C/c1cnnc2ccccc12 .
(A) > 10 µM

(Q) Recall and state the measured TGI for OC12c3ccccc3C1CCCCCCCCCC21OCCO1 (stereo unspecified) .
(A) > 100 µM

(Q) Recall and state the measured TGI for CCCCSC1=N/C(=C\c2ccc(N(C)C)cc2)C(=O)N1 .
(A) 48.2 µM

(Q) Recall and state the measured TGI for COc1ccc(/C(C#N)=C/c2cc(OC)c(OC)c(OC)c2)cc1 .
(A) > 100 µM

(Q) Recall and state the measured TGI for CC(=O)O[C@H]1C(=O)[C@@]2(C)[C@H]([C@H](OC(=O)c3ccccc3)[C@]3(O)C[C@H](OC(=O)[C@H](O)[C@@H](NC(=O)c4ccccc4)c4cccc(N(C)C)c4)C(C)=C1C3(C)C)[C@]1(OC(C)=O)CO[C@@H]1C[C@@H]2O .
(A) > 27 µM

---

Each entry below carries its recorded TGI.
- Test system: SK-OV-3 ovarian
- experimental.protocol: NCI tumour cell line growth inhibition, 48 h

Below, each entry is followed by its recorded TGI result.
(Q) Recall and state the measured TGI for CC(C(=O)c1ccncc1)c1ccccn1 (stereo not drawn) .
(A) > 100 µM

(Q) Recall and state the measured TGI for CCC1(OC(=O)CN)C(=O)OCc2c1cc1n(c2=O)Cc2cc3ccccc3nc2-1 (stereo not drawn) .
(A) > 54.3 µM

(Q) Recall and state the measured TGI for CCN(CC)c1ccc(/C=C2\CCc3ccc([N+](=O)[O-])cc3C2=O)cc1 .
(A) > 100 µM

More entries:
(Q) Recall and state the measured TGI for COC(=O)C1=C(O)CCCC(C2CCCCC(=O)C2C(=O)OC)=C1 (stereo not drawn) .
(A) > 100 µM

(Q) Recall and state the measured TGI for COC(=O)c1c2c(c(C)[n+]([O-])c1C)C(=O)C=C(NCc1cccc(Cl)c1)C2=O .
(A) 5.14 µM

---

- Test system: UACC-257 melanoma
- experimental.protocol: NCI tumour cell line growth inhibition, 48 h
measured.quantity: TGI

Below, each entry is followed by its recorded TGI result.
(Q) Recall and state the measured TGI for CC(=O)C(C(C)=O)[C@@H]1OC(C)(C)O[C@@H]1[C@H]1COC(C)(C)O1 .
(A) > 100 µM

(Q) Recall and state the measured TGI for CC(=O)OC12c3ccccc3-c3ccccc3C1C(C(=O)O)C2C(=O)O (centres undefined) .
(A) > 10 µM

(Q) Recall and state the measured TGI for CN1CCc2c(sc3ncn(Nc4ccc(Cl)cc4)c(=N)c23)C1 .
(A) > 100 µM

More entries:
(Q) Recall and state the measured TGI for O=[N+]([O-])c1cc(F)ccc1S(=O)(=O)c1ccccc1 .
(A) > 10 µM

(Q) Recall and state the measured TGI for CCOC(=O)C(=CNC(=S)N=Nc1c(O)[nH]c2ccccc12)C(=O)OCC .
(A) > 100 µM

(Q) Recall and state the measured TGI for CC(=O)O[C@H]1C[C@@H](OC(C)=O)[C@@](C)(O)[C@@H]2[C@@H](OC(C)=O)[C@@]3(O)[C@H](/C=C(/CO)[C@H]4O[C@H]4[C@@H](OC(C)=O)[C@@]12C)OC(=O)[C@@H]3C .
(A) > 25 µM

(Q) Recall and state the measured TGI for COC(=O)C(Cc1c[nH]c2ccccc12)NP(=O)(O)OCC1OC(n2cc(Br)c(=O)[nH]c2=O)CC1O (centres undefined) .
(A) > 100 µM

(Q) Recall and state the measured TGI for COC1CCC(OC)C(C2(C3CC(OC)CCC3OC)OC(=O)c3ccccc32)C1 (centres undefined) .
(A) > 100 µM

(Q) Recall and state the measured TGI for C=CCN1/C(=C2\SC(=S)N(c3ccc(C)cc3)C2=O)Sc2c1ncn(C)c2=O .
(A) > 100 µM

(Q) Recall and state the measured TGI for CC1(C)OC(=O)C(C#N)=C1C[n+]1ccccc1 .
(A) > 10 µM

(Q) Recall and state the measured TGI for COc1ccc(NC(C(N)=O)c2cc3cc(Br)ccc3nc2Cl)cc1 (centres undefined) .
(A) > 100 µM

(Q) Recall and state the measured TGI for c1ccc(SC23C4C5C6C4C2C6C53)nc1 (centres undefined) .
(A) > 100 µM

(Q) Recall and state the measured TGI for CCN(CC)CCn1c(=O)c2c(C)c3oc4ccccc4oc3c(C)c2c1=O .
(A) > 100 µM

(Q) Recall and state the measured TGI for CCCCc1ccc(Nc2nc(Cl)c3c(ncn3C3CC(Oc4ccc(C)cc4)C(COc4ccc(C)cc4)O3)n2)cc1 (centres undefined) .
(A) > 100 µM

---

- Tested on: HL-60(TB) leukemia
- experimental.protocol: NCI tumour cell line growth inhibition, 48 h
Each entry below carries its recorded TGI.

(Q) Recall and state the measured TGI for Cc1cc(C)c(C(=O)O)c(SSc2cc(C)cc(C)c2C(=O)O)c1 .
(A) > 100 µM

More entries:
(Q) Recall and state the measured TGI for O=C(CN1CCCCC1)Nc1ccc2c(c1)C1Oc3ccccc3CC1CO2 (stereo not drawn) .
(A) > 100 µM

(Q) Recall and state the measured TGI for Cc1nc2ccccn2c1NC(=O)NNC(=S)Nc1ccc(F)cc1 .
(A) > 100 µM
